Reference source: patent US5756291

molecular target: thrombin (alpha, Factor IIa) (Homo sapiens, UniProt P00734;P00734 P00734:328-363,P00734:364-622); experiment: inhibition; 100 nM; no DNA 23 s
Could you please report measured activity for the items listed next?
One number for each entry, in s clot time.

Solved entries:
GGTTGGTGTGGTTGG (ssDNA, Z 5-(1-propynyl)-2'-deoxyuridine [7 (Z = 5-(1-propynyl)-2'-deoxyuridine)]) [15-mer propynyl-dU 7]: 118
GGTTGGTGTGGTTGG (ssDNA, Z 5-(1-propynyl)-2'-deoxyuridine [3 (Z = 5-(1-propynyl)-2'-deoxyuridine)]) [15-mer propynyl-dU 3]: 138
GGTTGGTGTGGTTGG (ssDNA, Z 5-(1-propynyl)-2'-deoxyuridine [9 (Z = 5-(1-propynyl)-2'-deoxyuridine)]) [15-mer propynyl-dU 9]: 120
GGTTGGTGTGGTTGG (ssDNA, Z 5-(1-propynyl)-2'-deoxyuridine [12 (Z = 5-(1-propynyl)-2'-deoxyuridine)]) [15-mer propynyl-dU 12]: 129

Please turn your attention to the following entry.
Reported activity ( GGTTGGTGTGGTTGG (ssDNA, Z 5-(1-propynyl)-2'-deoxyuridine [4 (Z = 5-(1-propynyl)-2'-deoxyuridine)]) [15-mer propynyl-dU 4] ) = 187
